# System: acute myeloid leukemia cells (MOLM-13)
# METHOD: In vitro potency (CellTiter-Glo, 96 h) on MOLM-13
# Assay type: cell-based
# TEST_CONTEXT: Homo sapiens, MOLM-13, 96 h, CPT free drugs; CellTiter-Glo after 96 h exposure; read-out: MOLM-13 IC50
# Procedure: In vitro potency was assessed on multiple cancer cell lines. All cell lines were authenticated by STR profiling at IDEXX Bioresearch and cultured for no more than 2 months after resuscitation. […] After 96 hours, growth inhibition was assessed by CellTiterGlo® (Promega, Madison, WI) and luminescence was measured on a plate reader. Cell viability was determined by CellTiter-Glo staining after 96h exposure to ADC. ND=Not Determined. […]
Exercise: for every item that follows, state its recorded pIC50.
Please note pIC50 is a logarithmic value: minus log10 of concentration in mol/L. Answer with that number alone.

stdin: Fill in the blank: the reported pIC50 of CC[C@@]1(O)C(=O)OCc2c1cc1n(c2=O)Cc2c-1nc1cc(Br)c(OC)c(F)c1c2CN is ____.
stdout: 6.90

stdin: And what about the compound CC[C@@]1(O)C(=O)OCc2c1cc1n(c2=O)Cc2c-1nc1cc(F)c(C)c(/C=C/c3ccc(OC)cc3)c1c2CN ?
stdout: 7.47

stdin: And what about the compound C/C=C/c1c(C)c(F)cc2nc3c(c(CN)c12)Cn1c-3cc2c(c1=O)COC(=O)[C@]2(O)CC ?
stdout: 9.00

stdin: And what about the compound CC[C@@]1(O)C(=O)OCc2c1cc1n(c2=O)Cc2c-1nc1ccc3c(c1c2CN)SCC3 ?
stdout: 6.63

###

# Tested on: breast cancer cells (MDA-MB-231)
# METHOD: In vitro potency (CellTiter-Glo, 96 h) on MDA-MB-231
# Assay type: cell-based
# TEST_CONTEXT: Homo sapiens, MDA-MB-231, 96 h, read-out: MDAMB 231 IC50
Strictly below 30 nM in IC50: 1 (yes). Otherwise: 0 (no).

stdin: Is 30 nM strictly greater than the compound's reported IC50? compound: CC[C@@]1(O)C(=O)OCc2c1cc1n(c2=O)Cc2c-1nc1cc3c(cc1c2CNC(=O)CN)CCO3 [Compound 13]
stdout: 0 (no)

stdin: And what about the compound CC[C@@]1(O)C(=O)OCc2c1cc1n(c2=O)Cc2c-1nc1cc(F)c(C)c(C#N)c1c2CN [Compound 16] ?
stdout: 0 (no)

stdin: And what about the compound CC[C@@]1(O)C(=O)OCc2c1cc1n(c2=O)Cc2c-1nc1cc(F)c(C)c(Cl)c1c2CNC(=O)CN [Compound 13a] ?
stdout: 1 (yes)

stdin: And what about the compound CC[C@@]1(O)C(=O)OCc2c1cc1n(c2=O)Cc2c-1nc1cc3c(cc1c2CNCCCN1CCN(C)CC1)OCO3 [Compound 7h] ?
stdout: 0 (no)

stdin: And what about the compound CC[C@@]1(O)C(=O)OCc2c1cc1n(c2=O)Cc2c-1nc1cc3c(cc1c2CNC1CCN(C)CC1)OCO3 [Compound 7w] ?
stdout: 1 (yes)

stdin: And what about the compound CC[C@@]1(O)C(=O)OCc2c1cc1n(c2=O)Cc2c-1nc1cc3c(cc1c2CNC[C@@H](O)CN1CCCCC1)OCO3 [Compound 7z] ?
stdout: 0 (no)

stdin: And what about the compound CC[C@@]1(O)C(=O)OCc2c1cc1n(c2=O)Cc2c-1nc1cc3c(cc1c2CO)CCO3 [Compound 35] ?
stdout: 1 (yes)

###

# System: B-lymphocyte cancer cells (SU-DHL4)
# METHOD: In vitro potency (CellTiter-Glo, 96 h) on SU-DHL4
# Assay type: cell-based
# TEST_CONTEXT: Homo sapiens, SU-DHL-4, 96 h, read-out: SU-DHL-4 IC50
ENDPOINT_NAME: IC50

stdin: Fill in the blank: the reported IC50 of CC[C@@]1(O)C(=O)OCc2c1cc1n(c2=O)Cc2c-1nc1cc3c(cc1c2CNC[C@@H](O)CN1CCCCC1)OCO3 is ____.
stdout: 39 nM

stdin: And what about the compound CC[C@@]1(O)C(=O)OCc2c1cc1n(c2=O)Cc2c-1nc1cc3c(cc1c2CNC1CCN(C)CC1)OCO3 ?
stdout: 6 nM

stdin: And what about the compound CC[C@@]1(O)C(=O)OCc2c1cc1n(c2=O)Cc2c-1nc1cc3c(cc1c2CNCCOC)OCO3 ?
stdout: 0.8 nM

stdin: And what about the compound CC[C@@]1(O)C(=O)OCc2c1cc1n(c2=O)Cc2c-1nc1cc3c(cc1c2CNC[C@H](O)CN1CCCCC1)OCO3 ?
stdout: 19 nM

stdin: And what about the compound CC[C@@]1(O)C(=O)OCc2c1cc1n(c2=O)Cc2c-1nc1cc3c(cc1c2CNC(=O)CN)CCO3 ?
stdout: 18 nM

stdin: And what about the compound CC[C@@]1(O)C(=O)OCc2c1cc1n(c2=O)Cc2c-1nc1cc3c(cc1c2CNC(C)=O)OCO3 [Compound 12b] ?
stdout: 1 nM

stdin: And what about the compound CC[C@@]1(O)C(=O)OCc2c1cc1n(c2=O)Cc2c-1nc1cc3c(cc1c2CN)CCO3 ?
stdout: 1 nM

###

# Test system: acute myeloid leukemia cells (MOLM-13)
# METHOD: In vitro potency (CellTiter-Glo, 96 h) on MOLM-13
# Type: cell-based
# TEST_CONTEXT: Homo sapiens, MOLM-13, 96 h, CPT free drugs; CellTiter-Glo after 96 h exposure; read-out: MOLM-13 IC50
ENDPOINT_NAME: IC50 (µM)
# output: bare number, implied unit µM

stdin: Fill in the blank: the reported IC50 of CC[C@@]1(O)C(=O)OCc2c1cc1n(c2=O)Cc2c-1nc1cc(F)c(SC)cc1c2CN is ____.
stdout: 0.264

stdin: And what about the compound CC[C@@]1(O)C(=O)OCc2c1cc1n(c2=O)Cc2c-1nc1cc(F)c(OC)c(Br)c1c2CN ?
stdout: 0.005

stdin: And what about the compound CC[C@@]1(O)C(=O)OCc2c1cc1n(c2=O)Cc2c-1nc1cc(F)cc(Br)c1c2CN ?
stdout: 0.199

stdin: And what about the compound C/C=C(\C)c1c(C)c(F)cc2nc3c(c(CN)c12)Cn1c-3cc2c(c1=O)COC(=O)[C@]2(O)CC ?
stdout: 0.004

###

# Tested on: anaplastic large cell lymphoma cells (DELBVR)
# METHOD: In vitro potency (CellTiter-Glo, 96 h) on DELBVR
# Assay type: cell-based
# TEST_CONTEXT: 96 h, CPT free drugs; CellTiter-Glo after 96 h exposure; read-out: DELBVR IC50
Exercise: for every item that follows, state its recorded IC50.
# output: bare number, implied unit nM

stdin: Fill in the blank: the reported IC50 of CC[C@@]1(O)C(=O)OCc2c1cc1n(c2=O)Cc2c-1nc1cc3c(cc1c2CNC(=O)CO)CCO3 [Compound 15c] is ____.
stdout: 3

stdin: And what about the compound CC[C@@]1(O)C(=O)OCc2c1cc1n(c2=O)Cc2c-1nc1cc(F)c(C)c(C3=CCCC3)c1c2CN ?
stdout: 2

stdin: And what about the compound CC[C@@]1(O)C(=O)OCc2c1cc1n(c2=O)Cc2c-1nc1cc(F)c(C)c(-c3cccs3)c1c2CN ?
stdout: 7

stdin: And what about the compound CC[C@@]1(O)C(=O)OCc2c1cc1n(c2=O)Cc2c-1nc1cc(F)c(C)c(-c3ccoc3)c1c2CN ?
stdout: 2

stdin: And what about the compound CC[C@@]1(O)C(=O)OCc2c1cc1n(c2=O)Cc2c-1nc1cc(F)c(C)c(-c3ccco3)c1c2CN ?
stdout: 3

stdin: And what about the compound CC[C@@]1(O)C(=O)OCc2c1cc1n(c2=O)Cc2c-1nc1cc(F)c(OC)c(Br)c1c2CN ?
stdout: 1

stdin: And what about the compound CC[C@@]1(O)C(=O)OCc2c1cc1n(c2=O)Cc2c-1nc1cc(Br)c(OC)c(F)c1c2CN ?
stdout: 11

stdin: And what about the compound CC[C@@]1(O)C(=O)OCc2c1cc1n(c2=O)Cc2c-1nc1cc(F)c(C)c(-c3cccc(O)c3)c1c2CN ?
stdout: 1

###

# System: acute myeloid leukemia cells (MOLM-13)
# METHOD: In vitro potency (CellTiter-Glo, 96 h) on MOLM-13
# Type: cell-based
# TEST_CONTEXT: Homo sapiens, MOLM-13, 96 h, CPT free drugs; CellTiter-Glo after 96 h exposure; read-out: MOLM-13 IC50
Exercise: for every item that follows, state its recorded pIC50.
Please note pIC50 is a logarithmic value: minus log10 of concentration in mol/L. Answer with that number alone.

stdin: Short answer please: pIC50, acute myeloid leukemia cells (MOLM-13), entry CC[C@@]1(O)C(=O)OCc2c1cc1n(c2=O)Cc2c-1nc1cc3c(cc1c2Cn1ccnc1)OCO3
stdout: 8.05

stdin: And what about the compound CC[C@@]1(O)C(=O)OCc2c1cc1n(c2=O)Cc2c-1nc1cc(F)c(C)c(C3=CCCCC3)c1c2CN ?
stdout: 8.05

stdin: And what about the compound CC[C@@]1(O)C(=O)OCc2c1cc1n(c2=O)Cc2c-1nc1cc(F)c(C)c(C3=CCSCC3)c1c2CN ?
stdout: 8.15

stdin: And what about the compound CC[C@@]1(O)C(=O)OCc2c1cc1n(c2=O)Cc2c-1nc1cc(F)c(C)c(-c3ccoc3)c1c2CN ?
stdout: 8.52

stdin: And what about the compound CC[C@@]1(O)C(=O)OCc2c1cc1n(c2=O)Cc2c-1nc1cc3c(cc1c2CNC(=O)CO)CCO3 [Compound 15c] ?
stdout: 7.74
